B1: Osa-1-4 twister ribozyme (parent)
chain: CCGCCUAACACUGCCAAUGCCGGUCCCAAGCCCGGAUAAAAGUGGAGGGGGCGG

# Variants of: B1
# Assay text: self-cleavage, relative activity (ratio to wild type); higher = more cleavage; co-transcriptional
self-cleavage values for the variants below.

# Ordered residues, self-cleavage
records = [
    ("CCGCCUAACACUGGCAAUGACGGUCCCAAGCCCGGAUAAAAGUGGAGGGGGCGG [C14G C20A]", 0.17),
    ("CCGCCUAACACUGCCAAUGCCGGUCCCAAGCCCGGAUAAAAGUAGAGUGGGCGG [G44A G48U]", 0.06),
    ("CCGCCUAACAUUGCCAGUGCCGGUCCCAAGCCCGGAUAAAAGUGGAGGGGGCGG [A17G C11U]", 0.68),
    ("CCGCCUAACACUGCCAAUGCUGGUCCCAAGCCCGGAUAAAAGGGGAGGGGGCGG [C21U U43G]", 0.47),
    ("CCGCCUAACACUGCCAAUGACGGUCCCAAGCGCGGAUAAAAGUGGAGGGGGCGG [C20A C32G]", 0.05),
]

Task item: Fill in: self-cleavage of CCGCCUAACUCUGCCAAUGCCGGGCCCAAGCCCGGAUAAAAGUGGAGGGGGCGG [A10U U24G] is ___
Reply: 0.01

Task item: Fill in: self-cleavage of CCGCCUAACACUACCAAUGCCGGUCCCAAGCCCGGAUAAAAGUUGAGGGGGCGG [G13A G44U] is ___
Reply: 0.07

Task item: Fill in: self-cleavage of CCGCCUAACACUGCCAAUGCCGGUCCCUAACCCGGAUAAAAGUGGAGGGGGCGG [A28U G30A] is ___
Reply: 0.04

Task item: Fill in: self-cleavage of CCGCCUAACACUGACAAUGCCGGUCCCAAGCCCGGACAAAAGUGGAGGGGGCGG [C14A U37C] is ___
Reply: 0.12

Task item: Fill in: self-cleavage of CCGCCUACCACUGCCAAUGCCGGUCCCAAGCCCGGAUAAAAUUGGAGGGGGCGG [A8C G42U] is ___
Reply: 0.04

Task item: Fill in: self-cleavage of CCGCCUAACACUGACAAUGCUGGUCCCAAGCCCGGAUAAAAGUGGAGGGGGCGG [C14A C21U] is ___
Reply: 0.09

Task item: Fill in: self-cleavage of CCGCCUAACGCUGCCAAUGCCCGUCCCAAGCCCGGAUAAAAGUGGAGGGGGCGG [A10G G22C] is ___
Reply: 0.05
